study.target: T1, matriptase (Charles Craik, UCSF), recombinant (Homo sapiens (Human), UniProt Q9Y5Y6)
T1 sequence: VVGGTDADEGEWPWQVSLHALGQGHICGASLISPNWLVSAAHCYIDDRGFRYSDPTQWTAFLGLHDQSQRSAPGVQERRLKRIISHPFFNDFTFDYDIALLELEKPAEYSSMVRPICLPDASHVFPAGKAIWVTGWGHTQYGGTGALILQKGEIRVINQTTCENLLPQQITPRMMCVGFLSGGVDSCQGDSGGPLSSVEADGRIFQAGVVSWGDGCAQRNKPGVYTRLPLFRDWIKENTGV
protocol.description: fluorogenic inhibition assay
pKi: −log10 of the molar value. Positions of bridges follow the written chain, without caps; N, C: chain ends. Primed or numbered codes have the meaning given here. *: point of attachment. kt = C-terminal ketothiazole, c1csc(*)n1; kt″ = ketothiazole, c1csc(*)n1
Decide using pKi: a value greater than or equal to 8 is YES, a smaller one is NO.

The examples below pair each entry with its known result.
{"binder": "Ac-KHLR-{kt″} (SMILES CC(=O)N[C@@H](CCCCN)C(=O)N[C@@H](Cc1c[nH]cn1)C(=O)N[C@@H](CC(C)C)C(=O)N[C@@H](CCCNC(=N)N)C(=O)c1nccs1) [Ac-KHLR(SEQ ID NO: 2)-kt]", "class.name": "NO"}
{"binder": "Ac-KQLR-{kt″} (SMILES CC(=O)N[C@@H](CCCCN)C(=O)N[C@@H](CCC(N)=O)C(=O)N[C@@H](CC(C)C)C(=O)N[C@@H](CCCNC(=N)N)C(=O)c1nccs1) [Ac-KQLR(SEQ ID NO: 1)-kt]", "class.name": "YES"}
{"binder": "Ac-SRLR-kt (SMILES CC(=O)N[C@@H](CO)C(=O)N[C@@H](CCCNC(=N)N)C(=O)N[C@@H](CC(C)C)C(=O)N[C@@H](CCCNC(=N)N)C(=O)c1nccs1) [Ac-SRLR(SEQ ID NO: 15)-kt]", "class.name": "YES"}

Form field: pKi at least 8? Entry: Ac-WRLR-kt (SMILES CC(=O)N[C@@H](Cc1c[nH]c2ccccc12)C(=O)N[C@@H](CCCNC(=N)N)C(=O)N[C@@H](CC(C)C)C(=O)N[C@@H](CCCNC(=N)N)C(=O)c1nccs1) [Ac-WRLR(SEQ ID NO: 9)-kt] YES

// repeat for LLR (N-terminal acetyl; C-terminus printed as -H) [Leupeptin (Ac-LLR-H)] and report NO

// repeat for Ac-SHLR-kt (SMILES CC(=O)N[C@@H](CO)C(=O)N[C@@H](Cc1c[nH]cn1)C(=O)N[C@@H](CC(C)C)C(=O)N[C@@H](CCCNC(=N)N)C(=O)c1nccs1) [Ac-SHLR(SEQ ID NO: 11)-kt] and report NO

// repeat for H-KQDRR-kt (lactam 1-3; also: 3:1 D/L diastereomers at the alpha keto carbon) [H-cyclo(KQD)RR-kt] and report YES
